Molecular target: SIRT1 (Homo sapiens, UniProt Q96EB6)
Assay: Trp mass spectrometry assay of SIRT1 activation
Assay type: biochemical
Settings: Trp mass spectrometry assay; EC1.5 = concentration of test compound that results in 150% activation of SIRT1
value_kind: Tryp AVG EC1.5 (μM)

# count of solved cases: 6
input_smiles	Tryp AVG EC1.5 (μM)
COc1cc(NC(=O)N2c3nc(-c4cncc(Cl)c4)ccc3N3CCC2CC3)ncn1	C (C (EC1.5>25 μM))
N#Cc1ccccc1-c1ccc2c(n1)N(C(=O)Nc1cccnc1)[C@H]1CCCN2C1	B (B (EC1.5 1-25 μM))
Cc1ccc(-c2ccc(NC(=O)N3c4nc(-c5cccc(C(F)(F)F)c5)ccc4N4CC[C@H]3C4)cc2)o1	B (B (EC1.5 1-25 μM))
Cc1ccc(-c2ccc3c(n2)N(C(=O)Nc2cccnn2)[C@H]2CCCN3C2)cn1	B (B (EC1.5 1-25 μM))
COc1cc(NC(=O)N2c3nc(-c4cnccc4C)ccc3N3CCC[C@H]2C3)ncn1	C (C (EC1.5>25 μM))
O=C(O[C@@H]1CN2C[C@H]1N(C(=O)Nc1ccccn1)c1nc(-c3cccc(C(F)(F)F)c3)ccc12)c1ccccc1	C (C (EC1.5>25 μM))

Now, please, on to the next molecule.
Q: // Tryp AVG EC1.5 (μM) lookup, key: O=C(CCCCCNC(=O)c1ccc(-c2c3ccc(=O)cc-3oc3cc(O)ccc23)c(C(=O)O)c1)NCc1ccc(NC(=O)N2c3nc(-c4cccc(C(F)(F)F)c4)ccc3N3CCC[C@H]2C3)cc1
A: B (B (EC1.5 1-25 μM))

---

Biological target: SIRT1 (Homo sapiens)
Assay: Trp mass spectrometry assay of SIRT1 activation
Assay type: biochemical
Conditions: Trp peptide assay; EC1.5 = concentration that results in 150% activation of SIRT1
value_kind: TRP Activity (EC1.5)

# count of solved cases: 5
input_smiles	value_kind	reported_value
O=C(Nc1ncccn1)N1c2nc(N3CCC[C@H](C(F)(F)F)C3)ccc2N2CCC[C@H]1C2	TRP Activity (EC1.5)	A (A (EC1.5<1 μM))
COC(=O)CNC(=O)c1ccc2c(n1)N(C(=O)Nc1ccccn1)[C@H]1CCN2C1	TRP Activity (EC1.5)	B (B (EC1.5 1-25 μM))
Cc1cc(-c2ccc3c(n2)N(C(=O)Nc2cnccn2)[C@H]2CCN3C2)c(F)cn1	TRP Activity (EC1.5)	B (B (EC1.5 1-25 μM))
O=C(Nc1cnccn1)N1c2nc(N3CCC[C@H](C(F)(F)F)C3)ccc2N2CCC[C@H]1C2	TRP Activity (EC1.5)	A (A (EC1.5<1 μM))
Cc1ccc(-c2ccc3c(n2)N(C(=O)NCC(F)(F)F)[C@H]2CCN3C2)cn1	TRP Activity (EC1.5)	B (B (EC1.5 1-25 μM))

Q: // TRP Activity (EC1.5) lookup, key: Cn1ccc(-c2ccc3c(n2)N(C(=O)Nc2cccnc2)[C@H]2CCN3C2)cc1=O
A: B (B (EC1.5 1-25 μM))

---

Target: SIRT1 (Homo sapiens)
Assay: Trp mass spectrometry assay of SIRT1 activation
Assay type: biochemical
Conditions: Trp mass spectrometry assay; concentration of test compound giving 150% activation of SIRT1

input_smiles	Tryp AVG EC1.5 (μM)
COc1cc(-c2cccc(Cl)c2)nc2c1N1CC[C@@H](C1)N2C(=O)Nc1cnccn1	A (A (EC1.5<1 μM))
N#Cc1cccc(-c2ccc3c(n2)N(C(=O)Nc2cnccn2)[C@H]2CCCN3C2)c1	A (A (EC1.5<1 μM))
O=C(Nc1ccccn1)N1c2nc(-c3ccc(Cl)c(Cl)c3)ccc2N2CC[C@H]1C2	A (A (EC1.5<1 μM))

---

Target: SIRT1 (Homo sapiens)
Assay: Trp mass spectrometry assay of SIRT1 activation
Type: biochemical
Conditions: Trp peptide substrate; concentration giving 150% activation of SIRT1
value_kind: Tryp AVG EC1.5 (μM)

# count of solved cases: 5
compound	value_kind	reported_value
O=C(Nc1ccc2c(c1)OCCCO2)N1c2nc(-c3cccc(C(F)(F)F)c3)ccc2N2CC[C@H]1C2	Tryp AVG EC1.5 (μM)	A (A (EC1.5<1 μM))
Cc1nn(C)cc1NC(=O)N1c2nc(-c3cccc(C(F)(F)F)c3)ccc2N2CC[C@H]1C2	Tryp AVG EC1.5 (μM)	B (B (EC1.5 1-25 μM))
COc1cc(NC(=O)N2c3nc(-c4cccc(Cl)c4)ccc3N3CC[C@H]2C3)ncn1	Tryp AVG EC1.5 (μM)	B (B (EC1.5 1-25 μM))
O=C(Nc1nc2ccccc2s1)N1c2nc(-c3cccc(C(F)(F)F)c3)ccc2N2CC[C@H]1C2	Tryp AVG EC1.5 (μM)	A (A (EC1.5<1 μM))
Cc1cc(C)nc(NC(=O)N2c3nc(-c4cccc(Cl)c4)ccc3N3CC[C@H]2C3)c1	Tryp AVG EC1.5 (μM)	B (B (EC1.5 1-25 μM))

Q: // Tryp AVG EC1.5 (μM) lookup, key: Cc1cnccc1NC(=O)N1c2nc(C3CCCC(C(F)(F)F)C3)ccc2N2CC[C@H]1C2 (some centres unmarked)
A: B (B (EC1.5 1-25 μM))

Q: Try the compound O=C(Nc1cccc2nccnc12)N1c2nc(-c3cccc(C(F)(F)F)c3)ccc2N2CC[C@H]1C2
A: A (A (EC1.5<1 μM))

---

Target: SIRT1 (Homo sapiens)
Assay: Trp mass spectrometry assay of SIRT1 activation
Type: biochemical
Conditions: concentration giving 150% activation of SIRT1; Trp peptide substrate
value_kind: Tryp AVG EC1.5 (μM)

# count of solved cases: 4
input_smiles	study_system	Tryp AVG EC1.5 (μM)
O=C(Nc1cncc(-c2cnco2)c1)N1c2nc(-c3cncc(F)c3)ccc2N2CC[C@H]1C2	SIRT1 (Homo sapiens)	B (B (EC1.5 1-25 μM))
O=C(Nc1ccccn1)N1c2nc(-c3cccc(C(F)(F)F)c3)ccc2N2CC[C@H]1C2	SIRT1 (Homo sapiens)	A (A (EC1.5<1 μM))
O=C(Nc1cccc(-c2cnco2)c1)N1c2nc(N3CCCN(CC(F)(F)F)CC3)ccc2N2CC[C@H]1C2	SIRT1 (Homo sapiens)	A (A (EC1.5<1 μM))
O=C(Nc1cccc(-c2cccnc2)n1)N1c2nc(-c3cccc(C(F)(F)F)c3)ccc2N2CC[C@H]1C2	SIRT1 (Homo sapiens)	A (A (EC1.5<1 μM))

Q: // Tryp AVG EC1.5 (μM) lookup, key: CC(C)(C)OC(=O)NCc1cnnn1-c1cccc(NC(=O)N2c3nc(-c4cccc(C(F)(F)F)c4)ccc3N3CC[C@H]2C3)c1
A: A (A (EC1.5<1 μM))

---

Molecular target: SIRT1 (Homo sapiens, UniProt Q96EB6)
Sequence (Q96EB6 1-747): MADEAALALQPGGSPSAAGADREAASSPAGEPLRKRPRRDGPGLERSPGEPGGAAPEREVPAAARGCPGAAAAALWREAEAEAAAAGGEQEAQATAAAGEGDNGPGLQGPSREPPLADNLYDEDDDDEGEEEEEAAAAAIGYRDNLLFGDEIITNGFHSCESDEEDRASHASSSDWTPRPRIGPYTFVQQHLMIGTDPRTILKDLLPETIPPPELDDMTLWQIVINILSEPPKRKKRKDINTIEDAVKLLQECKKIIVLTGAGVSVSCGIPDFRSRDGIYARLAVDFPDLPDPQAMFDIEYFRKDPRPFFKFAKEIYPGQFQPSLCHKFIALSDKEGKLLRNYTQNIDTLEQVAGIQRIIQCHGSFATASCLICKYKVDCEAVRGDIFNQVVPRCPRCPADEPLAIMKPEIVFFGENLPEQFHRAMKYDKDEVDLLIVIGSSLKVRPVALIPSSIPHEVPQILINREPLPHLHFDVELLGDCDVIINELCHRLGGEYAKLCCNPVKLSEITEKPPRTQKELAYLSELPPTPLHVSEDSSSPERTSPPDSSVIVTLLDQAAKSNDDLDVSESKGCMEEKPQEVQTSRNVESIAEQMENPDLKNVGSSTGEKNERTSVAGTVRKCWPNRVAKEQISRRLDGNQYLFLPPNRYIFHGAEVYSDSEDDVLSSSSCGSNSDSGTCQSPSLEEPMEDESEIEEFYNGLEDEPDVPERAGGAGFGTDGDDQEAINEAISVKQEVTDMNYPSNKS
Experiment: Trp mass spectrometry assay of SIRT1 activation
Assay type: biochemical
Settings: Trp peptide assay; EC1.5 = concentration that results in 150% activation of SIRT1
value_kind: TRP Activity (EC1.5)

# count of solved cases: 4
compound	study_system	reported_value
O=C(Nc1cnccn1)N1c2nc(-c3ccnc(C(F)F)c3)ccc2N2CC[C@H]1C2	SIRT1 (Homo sapiens, UniProt Q96EB6)	A (A (EC1.5<1 μM))
O=C(NC1CCC1)c1ccc2c(n1)N(C(=O)Nc1ccccn1)[C@H]1CCN2C1	SIRT1 (Homo sapiens, UniProt Q96EB6)	A (A (EC1.5<1 μM))
Cc1cc(-c2ccc3c(n2)N(C(=O)Nc2ncnc4[nH]cnc24)[C@H]2CCN3C2)ccn1	SIRT1 (Homo sapiens, UniProt Q96EB6)	B (B (EC1.5 1-25 μM))
O=C(Nc1ccccn1)N1c2nc(N3CCC[C@H](C(F)(F)F)C3)ccc2N2CC[C@H]1C2	SIRT1 (Homo sapiens, UniProt Q96EB6)	B (B (EC1.5 1-25 μM))

Q: // TRP Activity (EC1.5) lookup, key: Cc1cc(-c2ccc3c(n2)N(C(=O)N2CCOCC2)[C@H]2CCN3C2)ccn1
A: C (C (EC1.5>25 μM))
